target: PPARγ (Homo sapiens); construct: purchased Invitrogen Corporation, Carlsbad, Calif; assay: Commercial PPARγ binding assay (Invitrogen, PPAR-LBD/Fluormone PPAR Green complex); details: compound at 1 μM; average (SEM) of three experiments in quadruplicate
RESULT_TYPE: PPARγ ligand binding (Fluormone displacement signal)

compound="CCc1ccc(C(O)COc2ccc(CC3(C)SC(=O)NC3=O)cc2)nc1 (stereo not shown)" reported_measurement="228 (9)"

Batch: PPARγ ligand binding (Fluormone displacement signal) for all items listed.
1. CCc1ccc(C(=O)COc2ccc(CC3SC(=O)NC3=O)cc2)nc1 (stereo not shown)
2. CCc1ccc(C(=CC(=O)OC)COc2ccc(CC3SC(=O)NC3=O)cc2)nc1 (stereo not shown) [Compound 3]
3. CCc1ccc(C(=CC(=O)OC)COc2ccc(CC3SC(=O)NC3=O)cc2)nc1 (stereo not shown) [Compound 11]
4. CCc1ccc(CCOc2ccc(CC3(C)SC(=O)NC3=O)cc2)nc1 (stereo not shown) [Compound 6]
5. CCc1ccc([C@@H](O)COc2ccc(CC3SC(=O)NC3=O)cc2)nc1 (stereo partly shown)

223 (12)
203 (15)
232 (12)
233 (11)
238 (12)

Returns the measured PPARγ ligand binding (Fluormone displacement signal) for the input compound. Input: CCc1ccc(CCOc2ccc(CC3(C)SC(=O)NC3=O)cc2)nc1 (stereo not shown) [Compound 4]
234 (11)

###

Would you kindly list Activation of PPARγ for each of these compounds?
Biological target: PPARγ (Homo sapiens)
Construct: purchased Invitrogen Corporation, Carlsbad, Calif
Sequence (P37231 238-503 limits assumed): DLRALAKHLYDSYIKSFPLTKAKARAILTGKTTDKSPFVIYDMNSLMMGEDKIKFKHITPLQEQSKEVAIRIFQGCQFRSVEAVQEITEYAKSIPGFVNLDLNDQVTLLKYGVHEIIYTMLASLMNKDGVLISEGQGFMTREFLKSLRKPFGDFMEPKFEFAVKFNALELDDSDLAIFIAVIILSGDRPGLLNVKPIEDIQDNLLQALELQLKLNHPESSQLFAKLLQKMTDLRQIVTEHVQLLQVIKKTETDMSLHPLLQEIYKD
Assay: Commercial PPARγ binding assay (Invitrogen, PPAR-LBD/Fluormone PPAR Green complex)
Settings: compound at 50 μM; average (SEM) of three experiments in quadruplicate

Use these answered entries as a reference point.
compound="CCc1ccc(C(=CCO)COc2ccc(CC3SC(=O)NC3=O)cc2)nc1 (centres unmarked)" reported_measurement="148 (23)"
compound="CCc1ccc(CCOc2ccc(CC3(C)SC(=O)NC3=O)cc2)nc1 (centres unmarked) [Compound 4]" reported_measurement="122 (21)"

# per-item lookup of Activation of PPARγ; items listed below
1. CCc1ccc([C@H](O)COc2ccc(CC3(C)SC(=O)NC3=O)cc2)nc1 (some centres unmarked)
2. CCc1ccc(C(=O)COc2ccc(CC3SC(=O)NC3=O)cc2)nc1 (centres unmarked)
3. CCc1ccc(C(=CC(=O)OC)COc2ccc(CC3SC(=O)NC3=O)cc2)nc1 (centres unmarked) [Compound 3]

["189 (19)", "174 (28)", "88 (6)"]

// each listed compound needs a value for Activation of PPARγ
1. CCc1ccc(C(COc2ccc(CC3SC(=O)NC3=O)cc2)CC(=O)OC)nc1 (centres unmarked)
2. CCc1ccc(C(=CC(=O)OC)COc2ccc(CC3SC(=O)NC3=O)cc2)nc1 (centres unmarked) [Compound 11]
3. CCc1ccc(CCOc2ccc(CC3(C)SC(=O)NC3=O)cc2)nc1 (centres unmarked) [Compound 6]

80 (2)
128 (30)
126 (17)
